Assay read-out pKi; system under study: UniProt:P41595.
Sequence (P41595 whole entry): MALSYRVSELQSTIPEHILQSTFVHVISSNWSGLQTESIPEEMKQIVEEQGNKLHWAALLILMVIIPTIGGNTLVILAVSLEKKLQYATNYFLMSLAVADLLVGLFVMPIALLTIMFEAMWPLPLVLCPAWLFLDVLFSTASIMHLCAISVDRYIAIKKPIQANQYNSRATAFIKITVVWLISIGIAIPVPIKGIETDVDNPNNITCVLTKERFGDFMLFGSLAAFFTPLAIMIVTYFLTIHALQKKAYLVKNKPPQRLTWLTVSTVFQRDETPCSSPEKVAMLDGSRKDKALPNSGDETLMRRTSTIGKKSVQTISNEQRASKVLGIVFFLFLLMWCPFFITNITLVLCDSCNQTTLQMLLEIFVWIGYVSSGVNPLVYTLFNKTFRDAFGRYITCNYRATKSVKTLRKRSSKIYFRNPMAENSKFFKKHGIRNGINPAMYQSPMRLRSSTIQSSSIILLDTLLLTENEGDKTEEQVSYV
pKi: −log10 of the molar value.
Observation type: pKi

>>> print(df.to_string())
                           molecular_string  result_number
0  OC[C@@]12C[C@@H]1[C@@H](n1cnc3c(N[C@H]4C[C@H]5CC[C@@H]4C5)nc(Cl)nc31)[C@H](O)[C@@H]2O           6.33
1  CNC(=O)[C@]12C[C@@H]1[C@@H](n1cnc3c(NC4CCCC4)nc(Cl)nc31)[C@H](O)[C@@H]2O           7.92

###

Items are presented alongside their recorded Fu.
Test: Fraction unbound in mouse plasma at 10 uM
Format: ADME, cell-free
Observation type: Fu (%)

>>> print(df.to_string())
                           molecular_string  result_units  sign  result_number
0  OC[C@H]1O[C@@H](n2cnc3c(NC(C4CCC4)C4CCC4)nc(Cl)nc32)[C@H](O)[C@@H]1O             %     =           4.74
1  OC[C@@]12C[C@@H]1[C@@H](n1cnc3c(NC(C4CCC4)C4CCC4)ncnc31)[C@H](O)[C@@H]2O             %     =           27.5
2  NC(=O)c1ncn([C@H]2[C@H](O)[C@H](O)[C@]3(CO)C[C@H]23)n1             %     >             80
3  OC[C@@]12C[C@@H]1[C@@H](n1cnc3c(N[C@H]4C[C@H]5CC[C@@H]4C5)nc(Cl)nc31)[C@H](O)[C@@H]2O             %     =           7.68
4  O[C@H]1[C@H](n2cnc3c(N[C@H]4C[C@H]5CC[C@@H]4C5)nc(Cl)nc32)[C@H]2C[C@@]2(CCl)[C@H]1O             %     =           2.95
5  OC[C@H]1O[C@@H](n2cnc3c(NC(C4CCC4)C4CCC4)ncnc32)[C@H](O)[C@@H]1O             %     =           20.6

###

Assay: Oral bioavailability in CD1 mouse at 1 mg/kg
Assay type: ADME, organism-based
Conditions: in vivo
Observation type: bioavailability (%)

>>> df
                           molecular_string  observation_type  result_number
0  O[C@@H]1[C@H](O)[C@@H]2C[C@@H]2[C@H]1n1cnc2c(NC(C3CC3)C3CC3)nc(Cl)nc21   bioavailability             98

###

Items are presented alongside their recorded inhibition.
Target: Adenosine receptor A2a (Mus musculus)
Test: Displacement of [3H]2-[p-(2-carboxyethyl)phenylethylamino]-5-N-ethylcarboxamidoadenosine from mouse A2A adenosine receptor expressed in HEK293 cell membranes at 10 uM after 60 mins by scintillation proximity assay relative to adenosine 5-N-ethyluronamide
Observation type: inhibition (%)

>>> df
                           molecular_string  result_units  result_number
0  OC[C@@]12C[C@@H]1[C@@H](n1cnc3c(NC(C4CCC4)C4CCC4)nc(Cl)nc31)[C@H](O)[C@@H]2O             %             26
1  O[C@H]1[C@H](n2cnc3c(NC(C4CCC4)C4CCC4)nc(Cl)nc32)[C@H]2C[C@@]2(CCl)[C@H]1O             %             20
2  O[C@H]1[C@H](n2cnc3c(NC(C4CCC4)C4CCC4)nc(Cl)nc32)[C@H]2C[C@@]2(CSc2ccccc2F)[C@H]1O             %             20
3  O[C@H]1[C@H](n2cnc3c(N[C@H]4C[C@H]5CC[C@@H]4C5)nc(Cl)nc32)[C@H]2C[C@@]2(CCl)[C@H]1O             %             15
4  OC[C@@]12C[C@@H]1[C@@H](n1cnc3c(N[C@H]4C[C@H]5CC[C@@H]4C5)nc(Cl)nc31)[C@H](O)[C@@H]2O             %             15
5  O=C(NCCO)[C@@]12C[C@@H]1[C@@H](n1cnc3c(N[C@H]4C[C@H]5CC[C@@H]4C5)nc(Cl)nc31)[C@H](O)[C@@H]2O             %             23

###

Test: Inhibition of rat benzodiazepine receptor
pKi: −log10 of the molar value.
Observation type: pKi

>>> df
                           molecular_string  observation_type  result_number
0  OC[C@@]12C[C@@H]1[C@@H](n1cnc3c(NC(C4CCC4)C4CCC4)ncnc31)[C@H](O)[C@@H]2O               pKi           5.39

###

Test: Fraction unbound in human plasma at 10 uM
Format: ADME, cell-free
Fu vs 6%: less than gives true (1); not less than gives false (0).

>>> print(df.to_string())
                           molecular_string   category
0  O[C@H]1[C@H](n2cnc3c(N[C@H]4C[C@H]5CC[C@@H]4C5)nc(Cl)nc32)[C@H]2C[C@@]2(CCl)[C@H]1O   true (1)
1  OC[C@H]1O[C@@H](n2cnc3c(NC(C4CCC4)C4CCC4)nc(Cl)nc32)[C@H](O)[C@@H]1O   true (1)
2  OC[C@@]12C[C@@H]1[C@@H](n1cnc3c(N[C@H]4C[C@H]5CC[C@@H]4C5)nc(Cl)nc31)[C@H](O)[C@@H]2O  false (0)
3  OC[C@@]12C[C@@H]1[C@@H](n1cnc3c(NC(C4CCC4)C4CCC4)ncnc31)[C@H](O)[C@@H]2O  false (0)
4  NC(=O)c1ncn([C@H]2[C@H](O)[C@H](O)[C@]3(CO)C[C@H]23)n1  false (0)

###

Experiment: Cmax in Sprague-Dawley rat at 3 mg/kg, po
Format: ADME, organism-based
Set-up: dose 3 mg/kg, route oral
Conditions: in vivo
Observation type: Cmax (ng/mL)

>>> df
                           molecular_string  observation_type  result_number
0  OC[C@H]1O[C@@H](n2cnc3c(NC(C4CCC4)C4CCC4)ncnc32)[C@H](O)[C@@H]1O              Cmax            121

###

Molecular target: Histamine H2 receptor (Homo sapiens)
Sequence (P25021 whole entry): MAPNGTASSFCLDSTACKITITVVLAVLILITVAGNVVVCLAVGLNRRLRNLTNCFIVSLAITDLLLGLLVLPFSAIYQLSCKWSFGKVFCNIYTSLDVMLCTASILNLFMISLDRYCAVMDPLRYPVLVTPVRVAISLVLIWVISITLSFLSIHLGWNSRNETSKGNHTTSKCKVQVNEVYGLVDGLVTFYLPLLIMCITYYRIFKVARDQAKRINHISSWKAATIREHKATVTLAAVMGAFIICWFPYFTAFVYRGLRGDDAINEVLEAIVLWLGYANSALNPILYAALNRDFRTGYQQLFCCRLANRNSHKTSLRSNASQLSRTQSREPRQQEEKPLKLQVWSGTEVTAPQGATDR
Observation type: Ki (µM)

>>> print(df.to_string())
                           molecular_string  result_units  result_number
0  CCOC(=O)[C@@]12C[C@@H]1[C@@H](n1cnc3c(NC(C4CC4)C4CC4)nc(Cl)nc31)[C@@H]1OC(C)(C)O[C@@H]12            µM           6.38

###

Target: 5-hydroxytryptamine receptor 2C (Homo sapiens, UniProt P28335)
Sequence (P28335 whole entry): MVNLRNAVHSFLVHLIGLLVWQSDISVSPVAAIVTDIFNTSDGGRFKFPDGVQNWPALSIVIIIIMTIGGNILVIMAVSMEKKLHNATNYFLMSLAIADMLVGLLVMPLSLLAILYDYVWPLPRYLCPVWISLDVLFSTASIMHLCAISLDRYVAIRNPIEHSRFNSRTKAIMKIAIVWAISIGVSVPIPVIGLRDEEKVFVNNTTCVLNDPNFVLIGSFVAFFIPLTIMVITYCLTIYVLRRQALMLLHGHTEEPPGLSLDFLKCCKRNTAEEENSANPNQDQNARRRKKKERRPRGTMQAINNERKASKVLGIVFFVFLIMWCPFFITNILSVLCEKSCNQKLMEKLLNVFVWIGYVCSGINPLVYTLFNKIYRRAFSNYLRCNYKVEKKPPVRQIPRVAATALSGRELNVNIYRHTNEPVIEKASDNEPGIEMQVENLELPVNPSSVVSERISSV
Observation type: Ki (nM)

In [3]: df
Out[3]:
                           molecular_string  result_number
0  O[C@@H]1[C@H](O)[C@@H]2C[C@@H]2[C@H]1n1cnc2c(NC(C3CCCC3)C3CCCC3)nc(Cl)nc21           2920
1  CCOC(=O)[C@@]12C[C@@H]1[C@@H](n1cnc3c(NC(C4CC4)C4CC4)nc(Cl)nc31)[C@H](O)[C@@H]2O             54
